The measurements presented in this section are drawn from patent US11459311B2.

- TEST_NAME: oral toxicity study in mouse
- ASSAY_CONTEXT: in vivo

| TEST_SMILES | LD50 |
| --- | --- |
| COc1ccc2c(c1)/C(=C1/Nc3ccccc3/C1=N\O)C(=O)N2 | ≥ 1000 mg/kg |

----------
- TEST_NAME: oral toxicity study in mouse
- ASSAY_CONTEXT: in vivo, orally administered, read-out: 50% lethal dose (LD 50)

| COMPOUND | LD50 |
| --- | --- |
| CO/N=C1/C(=C2/C(=O)Nc3cc(Cl)c(Cl)cc32)Nc2ccccc21 [Example 1, 5,6-dichloroindirubin-3′-methoxime] | ≥ 1000 mg/kg |
